Hi there, I'd appreciate the recorded IC50 (nM), in vitro cell killing in C4-2 cell line (Cell Titer Glo, 96 h) for every entry that follows.
- Assayed system: prostate specific membrane antigen (PSMA) (UniProt Q04609 1-750, limits assumed)
- Sequence (Q04609 whole entry): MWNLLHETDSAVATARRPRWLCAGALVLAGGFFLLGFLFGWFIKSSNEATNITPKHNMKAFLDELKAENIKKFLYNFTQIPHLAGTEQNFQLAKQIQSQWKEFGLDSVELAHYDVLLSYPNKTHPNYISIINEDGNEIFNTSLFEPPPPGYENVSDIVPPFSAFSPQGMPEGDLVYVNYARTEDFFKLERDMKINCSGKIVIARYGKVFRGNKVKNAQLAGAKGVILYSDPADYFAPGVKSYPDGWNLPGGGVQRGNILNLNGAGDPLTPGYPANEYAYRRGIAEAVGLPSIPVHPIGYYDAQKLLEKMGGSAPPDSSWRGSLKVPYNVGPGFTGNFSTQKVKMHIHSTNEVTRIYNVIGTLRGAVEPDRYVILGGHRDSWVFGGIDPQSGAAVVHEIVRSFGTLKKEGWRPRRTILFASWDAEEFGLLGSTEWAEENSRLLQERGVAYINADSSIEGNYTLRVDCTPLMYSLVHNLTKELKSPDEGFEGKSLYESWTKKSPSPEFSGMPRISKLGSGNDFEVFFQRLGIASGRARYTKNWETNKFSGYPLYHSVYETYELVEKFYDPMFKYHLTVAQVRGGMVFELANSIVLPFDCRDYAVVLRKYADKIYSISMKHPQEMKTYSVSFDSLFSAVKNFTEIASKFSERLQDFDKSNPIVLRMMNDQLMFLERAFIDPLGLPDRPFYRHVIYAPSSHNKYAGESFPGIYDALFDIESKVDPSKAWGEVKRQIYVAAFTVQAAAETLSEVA
- Measurement notes: cell-based or functional assay
Report as a plain number; the unit nM is understood.

Lookup: What does the data say about its IC50 (nM), in vitro cell killing in C4-2 cell line (Cell Titer Glo, 96 h)? Entry: Chimeric Anti-PSMA Antibody ADC, MMAF payload, Short Cleavable (Valine-Citruline-Acetyl) linker (antibody, human IgG1, kappa, V domains shown, para-acetyl phenylalanine (pAF) at position A114 (Kabat numbering; first residue of the heavy chain constant region), conjugated to short cleavable (Valine-Citruline-Acetyl) MMAF drug-linker) VH: EVQLQQSGPELVKPGTSVRISCKTSGYTFTEYTIHWVKQSHGKSLEWIGNINPNNGGTTYNQKFEDKATLTVDKSSSTAYMELRSLTSEDSAVYYCAAGWNFDYWGQGTTLTVSS VL: DIVMTQSHKFMSTSVGDRVSIICKASQDVGTAVDWYQQKPGQSPKLLIYWASTRHTGVPDRFTGSGSGTDFTLTITNVQSEDLADYFCQQYNSYPLTFGAGTKVEIKR
Found: 0.049

Lookup: Note, next up: Humanized Anti-PSMA Antibody Variant 2 ADC, MMAE payload, Short Cleavable (Valine-Citruline-Acetyl) linker (antibody, human IgG1, kappa, V domains shown, para-acetyl phenylalanine (pAF) at position A114 (Kabat numbering; first residue of the heavy chain constant region), conjugated to short cleavable (Valine-Citruline-Acetyl) MMAE drug-linker) VH: QVQLVQSGAEVKKPGASVKVSCKASGYTFTEYTIHWVRQAPGQRLEWMGNINPNNGGTTYNQKFEDRVTITRDTSASTAYMELSSLRSEDTAVYYCAAGWNFDYWGQGTTLTVSS VL: DIQLTQSPSFLSASVGDRVTITCKASQDVGTAVDWYQQKPGKAPKLLIYWASTRHTGVPSRFSGSGSGTEFTLTISSLQSEDFATYYCQQYNSYPLTFGGGTKVEIKR
Found: 0.52

Lookup: Try this binder next: Humanized Anti-PSMA Antibody Variant 1 ADC, MMAE payload, Non-Cleavable (PEG3) linker (antibody, human IgG1, kappa, V domains shown, para-acetyl phenylalanine (pAF) at position A114 (Kabat numbering; first residue of the heavy chain constant region), conjugated to non-cleavable (PEG3) MMAE drug-linker) VH: QVQLVQSGAEVKKPGASVKVSCKASGYTFTEYTIHWVRQAPGQRLEWMGNINPNNGGTTYNQKFEDRVTITRDTSASTAYMELSSLRSEDTAVYYCAAGWNFDYWGQGTTLTVSS VL: DIQLTQSPSFLSASVGDRVTITCKASQDVGTAVDWYQQKPGKAPKLLIYWASTRHTGVPSRFSGSGSGTEFTLTISSLQPEDFATYYCQQYNSYPLTFGGGTKVEIKR
Found: 11.3

Lookup: Could you do the same for Humanized Anti-PSMA Antibody Variant 2 ADC, MMAE payload, Non-Cleavable (PEG3) linker (antibody, human IgG1, kappa, V domains shown, para-acetyl phenylalanine (pAF) at position A114 (Kabat numbering; first residue of the heavy chain constant region), conjugated to non-cleavable (PEG3) MMAE drug-linker) VH: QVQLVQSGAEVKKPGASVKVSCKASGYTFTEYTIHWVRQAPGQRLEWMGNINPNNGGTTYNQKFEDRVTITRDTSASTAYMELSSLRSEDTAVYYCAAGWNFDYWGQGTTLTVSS VL: DIQLTQSPSFLSASVGDRVTITCKASQDVGTAVDWYQQKPGKAPKLLIYWASTRHTGVPSRFSGSGSGTEFTLTISSLQSEDFATYYCQQYNSYPLTFGGGTKVEIKR , please?
Found: 12.5

Lookup: Would you kindly repeat that for Humanized Anti-PSMA Antibody Variant 1 ADC, MMAF payload, Non-Cleavable (PEG3) linker (antibody, human IgG1, kappa, V domains shown, para-acetyl phenylalanine (pAF) at position A114 (Kabat numbering; first residue of the heavy chain constant region), conjugated to non-cleavable (PEG3) MMAF drug-linker) VH: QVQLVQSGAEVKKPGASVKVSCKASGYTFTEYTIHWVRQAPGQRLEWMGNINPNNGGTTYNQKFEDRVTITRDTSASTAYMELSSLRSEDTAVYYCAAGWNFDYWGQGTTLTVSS VL: DIQLTQSPSFLSASVGDRVTITCKASQDVGTAVDWYQQKPGKAPKLLIYWASTRHTGVPSRFSGSGSGTEFTLTISSLQPEDFATYYCQQYNSYPLTFGGGTKVEIKR ?
Found: 0.543

Lookup: Ok, now Chimeric Anti-PSMA Antibody ADC, MMAE payload, Non-Cleavable (PEG3) linker (antibody, human IgG1, kappa, V domains shown, para-acetyl phenylalanine (pAF) at position A114 (Kabat numbering; first residue of the heavy chain constant region), conjugated to non-cleavable (PEG3) MMAE drug-linker) VH: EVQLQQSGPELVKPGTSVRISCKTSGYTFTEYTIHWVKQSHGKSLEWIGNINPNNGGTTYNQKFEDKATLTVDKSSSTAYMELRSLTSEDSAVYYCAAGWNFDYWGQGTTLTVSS VL: DIVMTQSHKFMSTSVGDRVSIICKASQDVGTAVDWYQQKPGQSPKLLIYWASTRHTGVPDRFTGSGSGTDFTLTITNVQSEDLADYFCQQYNSYPLTFGAGTKVEIKR
Found: 10.2

Lookup: Next up: Humanized Anti-PSMA Antibody Variant 1 ADC, MMAE payload, Short Cleavable (Valine-Citruline-Acetyl) linker (antibody, human IgG1, kappa, V domains shown, para-acetyl phenylalanine (pAF) at position A114 (Kabat numbering; first residue of the heavy chain constant region), conjugated to short cleavable (Valine-Citruline-Acetyl) MMAE drug-linker) VH: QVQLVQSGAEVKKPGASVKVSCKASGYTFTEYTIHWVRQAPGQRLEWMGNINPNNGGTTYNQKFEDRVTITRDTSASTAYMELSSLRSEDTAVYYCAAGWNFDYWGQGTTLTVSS VL: DIQLTQSPSFLSASVGDRVTITCKASQDVGTAVDWYQQKPGKAPKLLIYWASTRHTGVPSRFSGSGSGTEFTLTISSLQPEDFATYYCQQYNSYPLTFGGGTKVEIKR
Found: 0.542

Lookup: For Chimeric Anti-PSMA Antibody ADC, MMAF payload, Non-Cleavable (PEG3) linker (antibody, human IgG1, kappa, V domains shown, para-acetyl phenylalanine (pAF) at position A114 (Kabat numbering; first residue of the heavy chain constant region), conjugated to non-cleavable (PEG3) MMAF drug-linker) VH: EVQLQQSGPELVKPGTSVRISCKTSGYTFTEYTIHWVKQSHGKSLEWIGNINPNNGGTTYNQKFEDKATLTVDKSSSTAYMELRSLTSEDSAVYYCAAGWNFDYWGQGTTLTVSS VL: DIVMTQSHKFMSTSVGDRVSIICKASQDVGTAVDWYQQKPGQSPKLLIYWASTRHTGVPDRFTGSGSGTDFTLTITNVQSEDLADYFCQQYNSYPLTFGAGTKVEIKR then?
Found: 0.295

Lookup: And what about the binder Humanized Anti-PSMA Antibody Variant 1 ADC, MMAF payload, Cleavable (Val-Citruline-PEG1) linker (antibody, human IgG1, kappa, V domains shown, para-acetyl phenylalanine (pAF) at position A114 (Kabat numbering; first residue of the heavy chain constant region), conjugated to cleavable (Val-Citruline-PEG1) MMAF drug-linker) VH: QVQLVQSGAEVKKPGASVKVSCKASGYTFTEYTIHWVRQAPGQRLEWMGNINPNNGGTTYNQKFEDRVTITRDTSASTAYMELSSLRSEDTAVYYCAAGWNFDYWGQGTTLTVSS VL: DIQLTQSPSFLSASVGDRVTITCKASQDVGTAVDWYQQKPGKAPKLLIYWASTRHTGVPSRFSGSGSGTEFTLTISSLQPEDFATYYCQQYNSYPLTFGGGTKVEIKR ?
Found: 0.066

Lookup: How about Humanized Anti-PSMA Antibody Variant 2 ADC, MMAF payload, Cleavable (Val-Citruline-PEG1) linker (antibody, human IgG1, kappa, V domains shown, para-acetyl phenylalanine (pAF) at position A114 (Kabat numbering; first residue of the heavy chain constant region), conjugated to cleavable (Val-Citruline-PEG1) MMAF drug-linker) VH: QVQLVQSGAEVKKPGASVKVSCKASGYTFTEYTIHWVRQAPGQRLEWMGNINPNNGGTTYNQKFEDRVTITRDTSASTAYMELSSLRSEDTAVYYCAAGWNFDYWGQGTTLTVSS VL: DIQLTQSPSFLSASVGDRVTITCKASQDVGTAVDWYQQKPGKAPKLLIYWASTRHTGVPSRFSGSGSGTEFTLTISSLQSEDFATYYCQQYNSYPLTFGGGTKVEIKR ?
Found: 0.051

Values were extracted from patent US20240350835A1.
